Molecular target: calpain-I isolated from human erythrocytes (Homo sapiens)
Construct: calpain-I—isolated from human erythrocytes
Sequence (P07384 whole entry): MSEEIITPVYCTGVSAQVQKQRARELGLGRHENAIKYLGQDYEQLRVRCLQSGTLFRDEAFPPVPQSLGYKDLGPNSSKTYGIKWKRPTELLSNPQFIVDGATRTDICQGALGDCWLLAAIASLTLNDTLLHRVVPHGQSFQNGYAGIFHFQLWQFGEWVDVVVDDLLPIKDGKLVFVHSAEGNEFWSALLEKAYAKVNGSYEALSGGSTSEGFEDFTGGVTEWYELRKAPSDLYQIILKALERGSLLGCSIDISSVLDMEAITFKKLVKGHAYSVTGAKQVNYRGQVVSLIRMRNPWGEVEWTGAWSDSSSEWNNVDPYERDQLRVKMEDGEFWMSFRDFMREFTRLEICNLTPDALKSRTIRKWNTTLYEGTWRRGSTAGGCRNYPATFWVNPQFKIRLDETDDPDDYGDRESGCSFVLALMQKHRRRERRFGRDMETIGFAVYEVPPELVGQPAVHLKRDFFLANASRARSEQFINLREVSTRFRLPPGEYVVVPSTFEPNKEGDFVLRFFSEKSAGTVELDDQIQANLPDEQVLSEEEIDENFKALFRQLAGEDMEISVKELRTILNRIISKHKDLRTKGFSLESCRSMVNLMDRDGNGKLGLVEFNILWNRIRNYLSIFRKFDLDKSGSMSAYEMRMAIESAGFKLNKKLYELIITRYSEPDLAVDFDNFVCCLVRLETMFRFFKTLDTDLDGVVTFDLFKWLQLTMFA
Sequence (P04632 whole entry partner): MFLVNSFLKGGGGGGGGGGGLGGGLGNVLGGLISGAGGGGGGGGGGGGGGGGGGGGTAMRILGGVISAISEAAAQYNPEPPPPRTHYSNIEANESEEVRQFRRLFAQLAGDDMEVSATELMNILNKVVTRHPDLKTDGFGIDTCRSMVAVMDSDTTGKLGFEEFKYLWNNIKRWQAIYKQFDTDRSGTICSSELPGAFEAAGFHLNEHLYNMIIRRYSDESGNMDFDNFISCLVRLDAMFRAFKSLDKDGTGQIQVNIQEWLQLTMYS
Experiment: Calpain I enzyme inhibition, kinetic fluorescence assay
Details: apparent Ki from IC50 by Cheng-Prussoff; human erythrocyte calpain-I
pKi: −log10 of the molar value.
VALUE_TYPE: pKi

Please review the entries below; each comes with its answer.
- COMPOUND: "CCCONC(=O)C(=O)C(Cc1ccccc1)NC(=O)c1cccnc1-n1ccc(-c2ccccc2)n1 (stereo not drawn)"
  ASSAYED_SYSTEM: "calpain-I isolated from human erythrocytes (Homo sapiens)"
  VALUE_TYPE: "pKi"
  REPORTED_VALUE: "> 6.70"
- COMPOUND: "O=C(NOCC1CC1)C(=O)C(Cc1ccccc1)NC(=O)c1cccnc1-n1ccc(-c2ccccc2)n1 (stereo not drawn)"
  ASSAYED_SYSTEM: "calpain-I isolated from human erythrocytes (Homo sapiens)"
  VALUE_TYPE: "pKi"
  REPORTED_VALUE: "> 6.70"

Quick batch: pKi for everything below.
1. CCONC(=O)C(=O)C(Cc1ccc(OC)cc1)NC(=O)c1cccnc1-n1ccc(-c2ccccc2)n1 (stereo not drawn)
2. CC(C)ONC(=O)C(=O)C(Cc1ccccc1)NC(=O)c1cccnc1-n1ccc(-c2ccccc2)n1 (stereo not drawn)
3. CONC(=O)C(=O)C(Cc1ccccc1)NC(=O)c1cccnc1-n1cc(C)c(-c2ccccc2)n1 (stereo not drawn)
4. CONC(=O)C(=O)C(Cc1ccccc1)NC(=O)c1cccnc1-n1cc(Cl)c(-c2ccccc2)n1 (stereo not drawn)
5. O=C(NOCCN1CCOCC1)C(=O)C(Cc1ccccc1)NC(=O)c1cccnc1-n1ccc(-c2ccccc2)n1 (stereo not drawn)
6. O=C(NOC1CCC1)C(=O)C(Cc1ccccc1)NC(=O)c1cccnc1-n1ccc(-c2ccccc2)n1 (stereo not drawn)
7. CONC(=O)C(=O)C(Cc1ccccc1)NC(=O)c1cccnc1-n1ccc(-c2ccc(F)cc2)n1 (stereo not drawn)
8. CONC(=O)C(=O)C(Cc1ccccc1)NC(=O)c1cccnc1-n1ccc(-c2ccccc2F)n1 (stereo not drawn)

Out:
> 6.70
> 6.70
6.22 to 6.52
6.22 to 6.52
6.52 to 6.70
> 6.70
6.52 to 6.70
> 6.70
